# Test system: vancomycin-resistant enterococci
# Assay Summary: broth micro-dilution, mean geometric MIC
# Assay type: cell-based, Enterococcus faecium and Enterococcus faecalis
# Experimental Conditions: enterococci, 24-hour incubation
Assay Metric: mean geometric MIC, Vancomycin Resistant Strains (µg/mL)

Compound: CCOc1ccc2ccccc2c1CNC1(C)CC(OC2C(Oc3c4cc5cc3Oc3ccc(cc3Cl)C(OC3CC(C)(N)C(O)C(C)O3)C3NC(=O)C(NC(=O)C5NC(=O)C(CC(N)=O)NC(=O)C(NC(=O)C(CC(C)C)NC)C(O)c5ccc(c(Cl)c5)O4)c4ccc(O)c(c4)-c4c(O)cc(O)cc4C(C(=O)O)NC3=O)OC(CO)C(O)C2O)OC(C)C1O (stereo not drawn)
Unit Text: µg/mL
Test Value: 19
//
Compound: CCCCCCCCC#CCCCCCCNC1(C)CC(OC2C(Oc3c4cc5cc3Oc3ccc(cc3Cl)C(OC3CC(C)(N)C(O)C(C)O3)C3NC(=O)C(NC(=O)C5NC(=O)C(CC(N)=O)NC(=O)C(NC(=O)C(CC(C)C)NC)C(O)c5ccc(c(Cl)c5)O4)c4ccc(O)c(c4)-c4c(O)cc(O)cc4C(C(=O)O)NC3=O)OC(CO)C(O)C2O)OC(C)C1O (stereo not drawn)
Unit Text: µg/mL
Test Value: 1.2
//
Compound: CNC(CC(C)C)C(=O)NC1C(=O)NC(CC(N)=O)C(=O)NC2C(=O)NC3C(=O)NC(C(=O)NC(C(=O)O)c4cc(O)cc(O)c4-c4cc3ccc4O)C(OC3CC(C)(N)C(O)C(C)O3)c3ccc(c(Cl)c3)Oc3cc2cc(c3OC2OC(CO)C(O)C(O)C2OC2CC(C)(NCc3ccc4c(c3)OCO4)C(O)C(C)O2)Oc2ccc(cc2Cl)C1O (stereo not drawn)
Unit Text: µg/mL
Test Value: 4.8
//
Compound: CNC(CC(C)C)C(=O)NC1C(=O)NC(CC(N)=O)C(=O)NC2C(=O)NC3C(=O)NC(C(=O)NC(C(=O)O)c4cc(O)cc(O)c4-c4cc3ccc4O)C(OC3CC(C)(N)C(O)C(C)O3)c3ccc(c(Cl)c3)Oc3cc2cc(c3OC2OC(CO)C(O)C(O)C2OC2CC(C)(NCc3ccc(CCc4ccccc4)cc3)C(O)C(C)O2)Oc2ccc(cc2Cl)C1O (stereo not drawn)
Unit Text: µg/mL
Test Value: 0.71
//
Compound: COc1cc(CNC2(C)CC(OC3C(Oc4c5cc6cc4Oc4ccc(cc4Cl)C(OC4CC(C)(N)C(O)C(C)O4)C4NC(=O)C(NC(=O)C6NC(=O)C(CC(N)=O)NC(=O)C(NC(=O)C(CC(C)C)N(C)Cc6ccc(OCc7ccccc7)c(OC)c6)C(O)c6ccc(c(Cl)c6)O5)c5ccc(O)c(c5)-c5c(O)cc(O)cc5C(C(=O)O)NC4=O)OC(CO)C(O)C3O)OC(C)C2O)ccc1OCc1ccccc1 (stereo not drawn)
Unit Text: µg/mL
Test Value: 6.7
//
Compound: CNC(CC(C)C)C(=O)NC1C(=O)NC(CC(N)=O)C(=O)NC2C(=O)NC3C(=O)NC(C(=O)NC(C(=O)O)c4cc(O)cc(O)c4-c4cc3ccc4O)C(OC3CC(C)(N)C(O)C(C)O3)c3ccc(c(Cl)c3)Oc3cc2cc(c3OC2OC(CO)C(O)C(O)C2OC2CC(C)(NCCCCCCCCOc3ccc(OC)cc3)C(O)C(C)O2)Oc2ccc(cc2Cl)C1O (stereo not drawn)
Unit Text: µg/mL
Test Value: 1.4

====

# Test system: Staphylococcus aureus 447
# Assay Summary: broth micro-dilution MIC
# Assay type: cell-based

Compound: CNC(CC(C)C)C(=O)NC1C(=O)NC(CC(N)=O)C(=O)NC2C(=O)NC3C(=O)NC(C(=O)NC(C(=O)O)c4cc(O)cc(O)c4-c4cc3ccc4O)C(OC3CC(C)(N)C(O)C(C)O3)c3ccc(c(Cl)c3)Oc3cc2cc(c3OC2OC(CO)C(O)C(O)C2OC2CC(C)(NCc3ccc(C#Cc4ccccc4)cc3)C(O)C(C)O2)Oc2ccc(cc2Cl)C1O (stereo not drawn)
Reading Qualifier: =
MIC / µg/mL: 2

Compound: CC(C)CC(C(=O)NC1C(=O)NC(CC(N)=O)C(=O)NC2C(=O)NC3C(=O)NC(C(=O)NC(C(=O)O)c4cc(O)cc(O)c4-c4cc3ccc4O)C(OC3CC(C)(N)C(O)C(C)O3)c3ccc(c(Cl)c3)Oc3cc2cc(c3OC2OC(CO)C(O)C(O)C2OC2CC(C)(N)C(O)C(C)O2)Oc2ccc(cc2Cl)C1O)N(C)Cc1ccc(-c2ccccc2)cc1 (stereo not drawn)
Reading Qualifier: =
MIC / µg/mL: 0.125

Compound: CNC(CC(C)C)C(=O)NC1C(=O)NC(CC(N)=O)C(=O)NC2C(=O)NC3C(=O)NC(C(=O)NC(C(=O)O)c4cc(O)cc(O)c4-c4cc3ccc4O)C(OC3CC(C)(N)C(O)C(C)O3)c3ccc(c(Cl)c3)Oc3cc2cc(c3OC2OC(CO)C(O)C(O)C2OC2CC(C)(NCc3ccc(-c4cccc(C)c4)cc3)C(O)C(C)O2)Oc2ccc(cc2Cl)C1O (stereo not drawn)
Reading Qualifier: =
MIC / µg/mL: 0.5

Compound: CNC(CC(C)C)C(=O)NC1C(=O)NC(CC(N)=O)C(=O)NC2C(=O)NC3C(=O)NC(C(=O)NC(C(=O)O)c4cc(O)cc(O)c4-c4cc3ccc4O)C(OC3CC(C)(N)C(O)C(C)O3)c3ccc(c(Cl)c3)Oc3cc2cc(c3OC2OC(CO)C(O)C(O)C2OC2CC(C)(NCc3ccc(-c4ccc(OC)cc4)s3)C(O)C(C)O2)Oc2ccc(cc2Cl)C1O (stereo not drawn)
Reading Qualifier: =
MIC / µg/mL: 4

Compound: CC(C)CC(C(=O)NC1C(=O)NC(CC(N)=O)C(=O)NC2C(=O)NC3C(=O)NC(C(=O)NC(C(=O)O)c4cc(O)cc(O)c4-c4cc3ccc4O)C(OC3CC(C)(N)C(O)C(C)O3)c3ccc(c(Cl)c3)Oc3cc2cc(c3OC2OC(CO)C(O)C(O)C2OC2CC(C)(NCc3ccc4c(c3)OCO4)C(O)C(C)O2)Oc2ccc(cc2Cl)C1O)N(C)Cc1ccc2c(c1)OCO2 (stereo not drawn)
Reading Qualifier: =
MIC / µg/mL: 2

Compound: CNC(CC(C)C)C(=O)NC1C(=O)NC(CC(N)=O)C(=O)NC2C(=O)NC3C(=O)NC(C(=O)NC(C(=O)O)c4cc(O)cc(O)c4-c4cc3ccc4O)C(OC3CC(C)(N)C(O)C(C)O3)c3ccc(c(Cl)c3)Oc3cc2cc(c3OC2OC(CO)C(O)C(O)C2OC2CC(C)(NCC3CCC(Cc4ccccc4)CC3)C(O)C(C)O2)Oc2ccc(cc2Cl)C1O (stereo not drawn)
Reading Qualifier: =
MIC / µg/mL: 1

Compound: CNC(CC(C)C)C(=O)NC1C(=O)NC(CC(N)=O)C(=O)NC2C(=O)NC3C(=O)NC(C(=O)NC(C(=O)O)c4cc(O)cc(O)c4-c4cc3ccc4O)C(OC3CC(C)(N)C(O)C(C)O3)c3ccc(cc3)Oc3cc2cc(c3OC2OC(CO)C(O)C(O)C2OC2CC(C)(NCc3ccc(-c4ccccc4)cc3)C(O)C(C)O2)Oc2ccc(cc2)C1O (stereo not drawn)
Reading Qualifier: ≤
MIC / µg/mL: 0.06

Compound: CNC(CC(C)C)C(=O)NC1C(=O)NC(CC(N)=O)C(=O)NC2C(=O)NC3C(=O)NC(C(=O)NC(C(=O)O)c4cc(O)cc(O)c4-c4cc3ccc4O)C(OC3CC(C)(N)C(O)C(C)O3)c3ccc(c(Cl)c3)Oc3cc2cc(c3OC2OC(CO)C(O)C(O)C2OC2CC(C)(NCc3ccc(OCc4ccccc4)cc3)C(O)C(C)O2)Oc2ccc(cc2Cl)C1O (stereo not drawn)
Reading Qualifier: =
MIC / µg/mL: 0.5

Compound: CNC(CC(C)C)C(=O)NC1C(=O)NC(CC(N)=O)C(=O)NC2C(=O)NC3C(=O)NC(C(=O)NC(C(=O)O)c4cc(O)cc(O)c4-c4cc3ccc4O)C(OC3CC(C)(N)C(O)C(C)O3)c3ccc(c(Cl)c3)Oc3cc2cc(c3OC2OC(CO)C(O)C(O)C2OC2CC(C)(NCCCCCCc3ccccc3)C(O)C(C)O2)Oc2ccc(cc2Cl)C1O (stereo not drawn)
Reading Qualifier: =
MIC / µg/mL: 0.5

Compound: CNC(CC(C)C)C(=O)NC1C(=O)NC(CC(N)=O)C(=O)NC2C(=O)NC3C(=O)NC(C(=O)NC(C(=O)O)c4cc(O)cc(O)c4-c4cc3ccc4O)C(OC3CC(C)(N)C(O)C(C)O3)c3ccc(c(Cl)c3)Oc3cc2cc(c3OC2OC(CO)C(O)C(O)C2OC2CC(C)(NCC34CC5CC(CC(C5)C3)C4)C(O)C(C)O2)Oc2ccc(cc2Cl)C1O (stereo not drawn)
Reading Qualifier: =
MIC / µg/mL: 1

Compound: CNC(CC(C)C)C(=O)NC1C(=O)NC(CC(N)=O)C(=O)NC2C(=O)NC3C(=O)NC(C(=O)NC(C(=O)O)c4cc(O)cc(O)c4-c4cc3ccc4O)C(OC3CC(C)(N)C(O)C(C)O3)c3ccc(c(Cl)c3)Oc3cc2cc(c3OC2OC(CO)C(O)C(O)C2OC2CC(C)(NCc3ccc(N=Nc4ccccc4)cc3)C(O)C(C)O2)Oc2ccc(cc2Cl)C1O (stereo not drawn)
Reading Qualifier: =
MIC / µg/mL: 0.5

Compound: CNC(CC(C)C)C(=O)NC1C(=O)NC(CC(N)=O)C(=O)NC2C(=O)NC3C(=O)NC(C(=O)NC(C(=O)O)c4cc(O)cc(O)c4-c4cc3ccc4O)C(OC3CC(C)(N)C(O)C(C)O3)c3ccc(c(Cl)c3)Oc3cc2cc(c3OC2OC(CO)C(O)C(O)C2OC2CC(C)(NCCc3cccc(OCc4ccccc4)c3)C(O)C(C)O2)Oc2ccc(cc2Cl)C1O (stereo not drawn)
Reading Qualifier: =
MIC / µg/mL: 1
